Below, each entry is listed alongside its reported composite z-score.
# experiment-summary: small-molecule binders of probe aNOTCH2, primary screen, biochemical, small-molecule microarray, 635/667 nm fluorescence (AID 1121);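 also: score merges feature fluorescence read at 667 nm with its signal to noise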
# condition-description: higher = more signal
Respond using a number only.

The reported value for C=C(/C(=C/C[C@@H](OC(=O)c1ccncc1)c1cccc(OCCO)c1)c1cnc2ccccc2c1)C(C)C in terms of composite z-score is -0.0689

The reported value for CCN(CC)c1ccc(N2CC=CC34O[C@@H]5C=CCCOC(=O)C5[C@H]3C(=O)N(CCO)[C@@H]4C2=O)cc1 (some centres not stated) in terms of composite z-score is -0.158

The reported value for CCOC(=O)C[C@H]1[C@H](OC(=O)c2ccc(C(=O)c3ccccc3)cc2)[C@@H](NC(=O)CC(C)C)c2cc(OCCCO)ccc2N1C(=O)Cc1ccc(OC)cc1 in terms of composite z-score is 0.075

The reported value for COCCOC(=O)N1C(=O)[C@@]2(c3cc(C#CCC(C(=O)OC)C(=O)OC)ccc31)[C@H](C(=O)NC[C@H](O)c1ccccc1)[C@H]1C(=O)O[C@H](c3ccccc3)[C@H](c3ccccc3)N1[C@@H]2c1ccc(OCCO)cc1 in terms of composite z-score is -0.099

The reported value for NCCCCCNC(=O)[C@@H]1C[C@@H]2C(=O)N3CCC[C@H]3C(=O)N2[C@@H]1c1ccc(O)cc1 in terms of composite z-score is 0.0214

The reported value for C=C(C(=O)CC[C@@H](OC(=O)c1ccccc1-c1ccccc1C(=O)O)c1ccccc1OCCO)C(C)C in terms of composite z-score is -0.108

The reported value for CC=CC(O)C1C=CC2C(=O)NC(=O)C2N1Nc1ccccn1 (configuration not stated) in terms of composite z-score is -0.112

* * *

# system-tested: Luciferin 4-monooxygenase (Photinus pyralis) (UniProt P08659)
# Sequence (P08659 whole entry, looked up): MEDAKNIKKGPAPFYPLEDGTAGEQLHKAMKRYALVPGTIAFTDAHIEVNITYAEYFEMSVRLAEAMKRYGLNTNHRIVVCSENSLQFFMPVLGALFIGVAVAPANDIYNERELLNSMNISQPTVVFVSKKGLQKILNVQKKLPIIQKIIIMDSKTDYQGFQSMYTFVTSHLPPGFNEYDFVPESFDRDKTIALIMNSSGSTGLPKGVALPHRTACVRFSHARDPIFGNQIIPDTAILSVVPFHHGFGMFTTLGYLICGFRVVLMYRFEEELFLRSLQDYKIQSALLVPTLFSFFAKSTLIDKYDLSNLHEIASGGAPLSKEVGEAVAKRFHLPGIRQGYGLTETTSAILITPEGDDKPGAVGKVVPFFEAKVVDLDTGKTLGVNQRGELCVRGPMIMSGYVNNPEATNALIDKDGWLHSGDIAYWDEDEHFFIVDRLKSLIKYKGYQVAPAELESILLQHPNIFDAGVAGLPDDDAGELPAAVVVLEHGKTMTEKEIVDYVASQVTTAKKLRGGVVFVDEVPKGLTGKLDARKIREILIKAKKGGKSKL
# experiment-summary: firefly luciferase enzyme inhibitors, primary screen, biochemical, luminescence, purified enzyme, 2006 set (AID 1141);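 also: cell-free assay with purified firefly luciferase at 100 ng per well in PBS; test concentration not given here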
# condition-description: SteadyGlo luminescence, 30 min, higher = more signal, called active from +8 up or from −8 down
Rule: z-score of -1 or more gives condition met; anything lower gives condition not met.

C=CCNC(=O)[C@H]1[C@@H]2C(=O)O[C@@H](c3ccccc3)[C@@H](c3ccccc3)N2[C@@H](c2ccc(OCCO)cc2)[C@]12C(=O)N(C(=O)OCCOC)c1ccc(C#Cc3ccc(OC)cc3)cc12	condition not met
CCCCCN1CC=CC23O[C@@H]4C=CCOC(=O)[C@@H]4[C@H]2C(=O)N(CCO)[C@@H]3C1=O (some centres not stated)	condition met

Query string: Is z-score for COc1ccc([Si](C)(C)[C@@H]2[C@@H](CCn3cc([C@H](O)c4ccccc4)nn3)O[C@]3(C(=O)N(Cc4cccc(N5C(=O)c6cccc7cccc5c67)c4)c4ccccc43)[C@H]2C)cc1 at or above -1?
Result string: condition met

Query string: Is z-score for O=C1OCCC=C[C@H]2OC34C=CCN(c5ccc(Cl)cc5)C(=O)[C@H]3N(CCCCCCO)C(=O)[C@@H]4C12 (some centres not stated) at or above -1?
Result string: condition not met

Query string: Is z-score for [N-]=[N+]=NCc1ccccc1[C@@H]1OC(c2ccc(OCCCO)cc2)=N[C@]1(Cc1ccccc1)C(=O)NCCN1CCOCC1 at or above -1?
Result string: condition not met

Query string: Is z-score for CCOC(=O)C1=CCN(S(=O)(=O)c2ccc(C)cc2)C1c1ccccc1 (configuration not stated) at or above -1?
Result string: condition met

Query string: Is z-score for C=C(/C(=C/C[C@@H](OC(=O)c1ccncc1)c1cccc(OCCO)c1)c1cnc2ccccc2c1)C(C)C at or above -1?
Result string: condition not met

Measured values drawn from PubChem BioAssay for this set.
